Kindly supply the reported CLint scaled at 0.75 h, 1 µM values for the records listed here.
Assay: in vitro
Conditions: human, liver microsomes
I'd appreciate it if you wrote the number followed by its unit.

Please report CLint scaled at 0.75 h, 1 µM for every entry that follows.
1. O=C(NC[C@@H]1[C@H]2C[C@@H](Oc3ccnc4ccc(F)cc34)C[C@@H]12)c1ccc(Cl)cc1
2. CCC(NC(=O)c1ccc(Cl)cc1)[C@@H]1[C@@H]2C[C@H](Oc3ccnc4ccncc34)C[C@@H]21 (some centres undefined)
3. Fc1cc2ncn([C@H]3C[C@@H]4[C@@H](CNC(c5ccc(Cl)cc5)C(F)(F)F)[C@@H]4C3)c2cc1F (some centres undefined)
4. O=C(C[C@H]1CC[C@@H](c2ccccc2)CC1)Nc1ccc(Cl)cc1

["38 mL/min/kg", "54 mL/min/kg", "100 mL/min/kg", "681 mL/min/kg"]

---

Experiment: in vivo
Details: NSG, mouse, plasma, po, 125 mg/kg
property.name: concentration at 120 h (nM)
Give bare numbers, in nM.

Given item "NS(=O)(=O)NCCNc1nonc1C(=NO)Nc1ccc(F)c(Br)c1" , the value recorded as its concentration at 120 h is 100

---

Experiment: in vivo
Settings: CD1, mouse, iv, 0.3 mg/kg
property.name: AUC(0-inf) (µM·h)
Give bare numbers, in µM·h.

> print(dat)
                                   compound  property.name  reading.unit  reported.measurement
1  CCC(NC(=O)c1ccc(Cl)cc1)[C@@H]1[C@@H]2C[C@H](Oc3ccnc4ccc(F)cc34)C[C@@H]21 (stereo partly drawn)     AUC(0-inf)          µM·h                    51
2  CCC(NC(=O)c1ccc(Cl)cc1)[C@H]1[C@@H]2C[C@@H](n3cc(C4CC4)nn3)C[C@@H]21 (stereo partly drawn)     AUC(0-inf)          µM·h                   2.8

// field: AUC(0-inf); key: CC(NC(=O)c1ccc(C#N)cc1)[C@H]1[C@@H]2C[C@@H](Oc3ncnc4cc(F)ccc34)C[C@@H]21 (stereo partly drawn) ; value = 106

---

So I've got a bunch of molecules here, and I need their CLint scaled at 0.75 h, 1 µM values.
Assay: in vitro
Details: rat, liver microsomes

> print(dat)
                                   molecule  reported.measurement
1  O=C(Nc1ccc(Cl)cc1)N1CCC(CCc2ccnc3ccccc23)CC1         170 mL/min/kg
2  CCC(NC(=O)c1ccc(Cl)cc1)[C@H]1[C@@H]2C[C@H](Oc3ccnc4ccccc34)C[C@@H]21 (stereo not given in full)         956 mL/min/kg
3  CC(C(=O)Nc1ccc(Cl)cc1)N1CC(COc2ccnc3ccccc23)C1 (stereo not given)         526 mL/min/kg
4  O[C@H](C[C@H]1c2c(F)cccc2-c2cncn21)[C@H]1CC[C@H](O)CC1 [NAVOXIMOD]          39 mL/min/kg
5  O=C(C[C@H]1CC[C@@H](c2ccccc2)CC1)Nc1ccc(Cl)cc1         884 mL/min/kg

# map each molecule to its CLint scaled at 0.75 h, 1 µM
1. CCC(NC(=O)c1ccc(Cl)cc1)[C@@H]1[C@@H]2C[C@@H](Oc3ccnc4ccccc34)C[C@@H]21 (stereo not given in full)
2. O=C(Nc1ccc(Cl)cc1)C1CC12CCC(Oc1ccnc3ccccc13)CC2 (stereo not given)
3. O=C1CC(c2c[nH]c3ccc(F)cc23)C(=O)N1 (stereo not given) [PF-06840003]
4. NS(=O)(=O)NCCNc1nonc1C(=NO)Nc1ccc(F)c(Br)c1 [EPACADOSTAT]
5. O=C(C[C@H]1CC[C@@H](Oc2ccnc3ccccc23)CC1)Nc1ccc(Cl)cc1

1. 14 mL/min/kg
2. 137 mL/min/kg
3. 7.2 mL/min/kg
4. 32 mL/min/kg
5. 455 mL/min/kg
